System: P. falciparum 3D7
Assay: P. falciparum drug susceptibility assay (3D7)
Format: cell-based, Plasmodium falciparum
Conditions: 3D7 strain; racemate unless indicated; read-out: 3D7_EC50
VALUE_TYPE: EC50 (nM)
Numbers only, in nM.

• N#Cc1cc(NC(=O)C2c3ccccc3C(=O)N(CC(F)(F)F)C2c2cccnc2)ccc1F (single isomer, unassigned; isomer d) [Example 6 d-isomer] = 17

Continue with the compound presented below.
Request: Indicate the recorded EC50 value for this compound: N#Cc1cc(F)cc(NC(=O)C2c3ccccc3C(=O)N(CC(F)(F)F)C2c2cn[nH]c2)c1 (single isomer, unassigned; isomer d) [Example 20 d-isomer]
Result: 8
